# target_system: T1, huCLL1-K244-Avi-Tev-His (human, UniProt Q5QGZ9 65-265)
# T1 construct: extracellular domain
# T1 sequence (looked up): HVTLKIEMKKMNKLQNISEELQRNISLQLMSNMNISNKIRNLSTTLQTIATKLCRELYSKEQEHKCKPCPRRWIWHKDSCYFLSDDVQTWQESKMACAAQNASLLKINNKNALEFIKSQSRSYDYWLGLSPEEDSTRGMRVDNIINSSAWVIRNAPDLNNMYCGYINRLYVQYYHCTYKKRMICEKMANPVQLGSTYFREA
# experiment: BLI
measure_name: binding result

>>> result("Polypeptide No. 166 (scFv, V domains shown, scFv) VH: QVQLVQSGAEVKKPGASVKVSCKASGYTFESYDMNWVRQAPGQGLEWMGWIDPHSGDTNFAQKFQGRVTMTRDTSTSTVYMELSSLRSEDTAVYYCARADYGGNADYWGQGTLVTVSS VL: DIQMTQSPSSLSASVGDRVTITCRASQGISNWLAWYQQKPGKAPKLLIYDASNLETGVPSRFSGSGSGTDFTLTISSLQPEDFATYYCQQSYSTPYTFGQGTKVEIKR")
"binds"
>>> result("Polypeptide No. 178 (scFv, V domains shown, scFv) VH: EVQLLESGGGLVQPGGSLRLSCAASGFTFSSSDMSWVRQAPGKGLEWVSSITGSGDGTYYADSVKGRFTISRDNSKNTLYLQMNSLRAEDTAVYYCIRDWEGIYQWGQGTLVTVSS VL: DIQMTQSPSSLSASVGDRVTITCRVSQGISSYLNWYQQKPGKAPKLLIYDASNLETGVPSRFSGSGSGTDFTLTISSLQPEDFATYYCQQGYSTPWTFGQGTKLEIKR")
"binds"
